ASSAY_SYSTEM: rFVIII (Homo sapiens)
ASSAY_NOTES: confirmatory binding assay in filtration plate format using 14C-rFVIII
STUDY_CONDITIONS: Table 3; 14C-rFVIII 20 nM
Recorded Total dpm for the following substances
Expressed in dpm, but write only the number.

Exercise: Look up Total dpm with rFVIII (Homo sapiens) for this substance: 4 (FRPHWA) [compound 4]
Key: 3744

Exercise: Let us now turn to 2 (RNPPNN) [compound 2]
Key: 2767

Exercise: Also, 1 (KPNPLA) [compound 1] please.
Key: 3162

Exercise: Cool, now 16 (WRRHRY) [compound 16]
Key: 2897

Exercise: # repeat for 7 (IRFYSE) [compound 7]
Key: 3764

Exercise: Do the same for 3 (YVQGLW) [compound 3] please
Key: 2020

Exercise: For 18 (WLWSHN) [compound 18] then?
Key: 2608

Exercise: Also check 17 (FYRFWN) [compound 17]
Key: 3009

Exercise: Thanks! And 5 (LNWKYG) [compound 5] ?
Key: 4091

Exercise: Subsequent entry: 6 (HYWFYK) [compound 6]
Key: 3881

----------
ASSAY_SYSTEM: rFVIII (Homo sapiens, UniProt P00451)
Sequence (P00451 20-2351): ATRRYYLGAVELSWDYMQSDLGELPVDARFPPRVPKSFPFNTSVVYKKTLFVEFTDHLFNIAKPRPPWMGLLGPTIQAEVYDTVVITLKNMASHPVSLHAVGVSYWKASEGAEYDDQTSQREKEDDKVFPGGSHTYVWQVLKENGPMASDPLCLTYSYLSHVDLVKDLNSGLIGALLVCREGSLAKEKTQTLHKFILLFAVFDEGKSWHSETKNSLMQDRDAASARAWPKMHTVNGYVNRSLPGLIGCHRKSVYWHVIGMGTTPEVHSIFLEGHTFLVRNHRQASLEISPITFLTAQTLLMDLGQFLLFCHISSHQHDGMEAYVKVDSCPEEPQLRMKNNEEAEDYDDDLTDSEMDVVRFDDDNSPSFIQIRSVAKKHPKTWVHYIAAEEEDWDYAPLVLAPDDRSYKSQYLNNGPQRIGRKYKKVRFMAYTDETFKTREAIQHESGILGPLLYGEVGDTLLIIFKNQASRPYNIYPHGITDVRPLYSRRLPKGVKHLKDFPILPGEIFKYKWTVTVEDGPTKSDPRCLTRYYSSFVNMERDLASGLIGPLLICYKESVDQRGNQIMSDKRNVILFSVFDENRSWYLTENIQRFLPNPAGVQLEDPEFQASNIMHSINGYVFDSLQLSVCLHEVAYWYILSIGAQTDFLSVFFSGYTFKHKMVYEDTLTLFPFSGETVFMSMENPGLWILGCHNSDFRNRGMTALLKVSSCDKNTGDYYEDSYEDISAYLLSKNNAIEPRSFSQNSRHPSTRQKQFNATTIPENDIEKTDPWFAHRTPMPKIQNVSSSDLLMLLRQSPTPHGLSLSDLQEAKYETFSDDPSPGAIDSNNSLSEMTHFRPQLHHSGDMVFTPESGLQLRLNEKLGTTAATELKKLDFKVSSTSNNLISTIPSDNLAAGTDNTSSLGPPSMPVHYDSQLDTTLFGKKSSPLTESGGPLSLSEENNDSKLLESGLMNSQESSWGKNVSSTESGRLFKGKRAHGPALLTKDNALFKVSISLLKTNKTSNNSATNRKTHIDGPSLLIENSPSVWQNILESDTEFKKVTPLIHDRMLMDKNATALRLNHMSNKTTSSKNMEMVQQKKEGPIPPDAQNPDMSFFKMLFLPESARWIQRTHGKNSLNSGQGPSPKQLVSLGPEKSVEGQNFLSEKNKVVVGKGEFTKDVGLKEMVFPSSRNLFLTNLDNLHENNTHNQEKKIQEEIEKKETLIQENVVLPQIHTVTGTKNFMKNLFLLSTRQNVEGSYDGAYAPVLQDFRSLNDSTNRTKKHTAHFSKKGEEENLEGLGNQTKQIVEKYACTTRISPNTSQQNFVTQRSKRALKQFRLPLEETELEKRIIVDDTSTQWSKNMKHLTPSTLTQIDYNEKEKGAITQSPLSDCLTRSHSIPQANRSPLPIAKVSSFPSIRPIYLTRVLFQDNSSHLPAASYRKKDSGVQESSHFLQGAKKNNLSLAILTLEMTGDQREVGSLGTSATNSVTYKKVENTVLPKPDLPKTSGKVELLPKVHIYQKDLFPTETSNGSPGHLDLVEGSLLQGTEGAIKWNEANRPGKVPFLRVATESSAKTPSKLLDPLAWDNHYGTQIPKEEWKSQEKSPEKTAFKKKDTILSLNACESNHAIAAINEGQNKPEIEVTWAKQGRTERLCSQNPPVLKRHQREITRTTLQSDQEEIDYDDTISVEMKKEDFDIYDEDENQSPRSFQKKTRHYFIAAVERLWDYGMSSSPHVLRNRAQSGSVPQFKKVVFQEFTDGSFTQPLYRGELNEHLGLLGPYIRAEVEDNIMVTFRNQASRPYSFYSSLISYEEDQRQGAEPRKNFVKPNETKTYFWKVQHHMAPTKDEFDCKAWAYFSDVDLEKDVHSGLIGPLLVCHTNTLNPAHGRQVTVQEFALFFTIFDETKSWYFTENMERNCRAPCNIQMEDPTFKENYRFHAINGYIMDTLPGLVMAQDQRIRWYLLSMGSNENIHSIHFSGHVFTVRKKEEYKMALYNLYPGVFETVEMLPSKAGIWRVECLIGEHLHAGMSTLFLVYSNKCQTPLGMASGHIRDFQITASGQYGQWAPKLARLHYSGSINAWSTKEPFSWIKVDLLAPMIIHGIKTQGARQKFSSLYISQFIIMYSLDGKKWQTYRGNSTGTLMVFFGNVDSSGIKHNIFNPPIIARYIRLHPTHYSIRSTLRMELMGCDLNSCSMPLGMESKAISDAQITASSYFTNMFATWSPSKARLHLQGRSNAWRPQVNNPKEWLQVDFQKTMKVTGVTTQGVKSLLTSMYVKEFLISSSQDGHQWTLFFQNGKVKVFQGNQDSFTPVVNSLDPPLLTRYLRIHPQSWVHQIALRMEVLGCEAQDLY
Sequence (P00451 1668-2351 limits assumed): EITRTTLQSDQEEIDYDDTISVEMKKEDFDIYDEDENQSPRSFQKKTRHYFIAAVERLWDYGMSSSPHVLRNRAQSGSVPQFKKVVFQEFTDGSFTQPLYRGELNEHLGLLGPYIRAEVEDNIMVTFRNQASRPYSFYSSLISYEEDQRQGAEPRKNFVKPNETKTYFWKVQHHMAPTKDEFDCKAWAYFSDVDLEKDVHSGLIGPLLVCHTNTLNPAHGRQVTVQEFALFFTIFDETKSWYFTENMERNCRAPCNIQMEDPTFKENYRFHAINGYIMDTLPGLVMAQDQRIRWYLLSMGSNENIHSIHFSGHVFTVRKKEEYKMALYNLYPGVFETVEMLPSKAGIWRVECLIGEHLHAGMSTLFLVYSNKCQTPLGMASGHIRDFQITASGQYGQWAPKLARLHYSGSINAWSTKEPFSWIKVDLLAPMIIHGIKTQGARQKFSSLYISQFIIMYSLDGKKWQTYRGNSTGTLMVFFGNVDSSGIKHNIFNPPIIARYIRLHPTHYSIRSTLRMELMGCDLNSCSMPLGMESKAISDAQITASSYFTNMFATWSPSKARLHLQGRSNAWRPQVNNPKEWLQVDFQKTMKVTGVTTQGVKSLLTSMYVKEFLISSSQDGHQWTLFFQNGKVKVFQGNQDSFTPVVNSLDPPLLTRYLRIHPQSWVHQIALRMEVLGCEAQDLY
ASSAY_NOTES: confirmatory binding assay in filtration plate format using 14C-rFVIII
STUDY_CONDITIONS: Table 4; remaining on beads after washes; 14C-rFVIII 30 nM
Param label: returns criterion met when beads % total < 10%, returns criterion not met otherwise, including exact equality.

Solved cases below.
SUBSTANCE	DISCRETE_LABEL
22 (FVFLVR) [compound 22]	criterion not met
15 (VYGVGG) [compound 15]	criterion met
14 (EPRVIG) [compound 14]	criterion met

Exercise: Is the reported beads % total for 11 (NAIFQW) [compound 11] strictly below 10%?
Key: criterion not met

Exercise: Another substance: 12 (QRLIQF) [compound 12]
Key: criterion met

Exercise: What do you get for 10 (AFVRSL) [compound 10] ?
Key: criterion met

Exercise: Another substance: 13 (KAQETW) [compound 13]
Key: criterion met

Exercise: Cool, now 9 (FALPGR) [compound 9]
Key: criterion met

----------
ASSAY_SYSTEM: rFVIII (Homo sapiens, UniProt P00451)
ASSAY_NOTES: rFVIII activity recovery from peptide columns by chromogenic substrate assay (COATEST)
Assay type: biochemical
STUDY_CONDITIONS: Table 7
RECORDED_ENDPOINT: 2% acetic acid IU (IU)
Could you give me the number in IU? Just the number is fine.

Solved cases below.
SUBSTANCE	2% acetic acid IU (IU)
1 (KPNPLA) [compound 1]	0.58
5 (LNWKYG) [compound 5]	1.2
2 (RNPPNN) [compound 2]	0.5
7 (IRFYSE) [compound 7]	0.4

Next item in the queue.
Exercise: What measured 2% acetic acid IU goes with 6 (HYWFYK) [compound 6] ?
Key: 0.5

----------
ASSAY_SYSTEM: rFVIII (Homo sapiens)
ASSAY_NOTES: column format binding assay, rFVIII mass per fraction by sandwich capture ELISA for the light chain
STUDY_CONDITIONS: Table 5
Mark rule not met for Total ng values under 6000 ng, and rule met for everything at or above.

As a guide, the following entries are already answered.
SUBSTANCE	DISCRETE_LABEL
2 (RNPPNN) [compound 2]	rule met
1 (KPNPLA) [compound 1]	rule not met
18 (WLWSHN) [compound 18]	rule not met

Exercise: Could you tell me if the measured Total ng of 17 (FYRFWN) [compound 17] reaches 6000 ng or more?
Key: rule not met

Exercise: What about 5 (LNWKYG) [compound 5] ?
Key: rule not met

Exercise: Similarly, 16 (WRRHRY) [compound 16] ?
Key: rule not met

Exercise: Now the substance 6 (HYWFYK) [compound 6]
Key: rule met

Exercise: Here is the next substance: 7 (IRFYSE) [compound 7]
Key: rule met
